Data origin, for the record: ChEMBL document CHEMBL2434968

A set of compounds tested on UniProtKB Q9YQ12, with measured Kd:
Reported Property: Kd (nM)

A = CC1(C)SCN(C(=O)[C@@H](O)[C@H](Cc2ccccc2)NC(=O)COc2ccccc2)C1C(=O)N[C@H]1c2ccccc2C[C@H]1O (some centres not stated)
B = Cc1cccc(C)c1OCC(=O)N[C@@H](Cc1ccccc1)[C@H](O)C(=O)N1CSC(C)(C)C1C(=O)N[C@H]1c2ccccc2C[C@H]1O (some centres not stated)
Enquiry: For this pair, A and B , which shows a numerically higher Kd? Reply briefly: the label of your chosen item.
Return: A

* * *

biological target: Cathepsin D (Homo sapiens)
Sequence (P07339 65-162 limits assumed): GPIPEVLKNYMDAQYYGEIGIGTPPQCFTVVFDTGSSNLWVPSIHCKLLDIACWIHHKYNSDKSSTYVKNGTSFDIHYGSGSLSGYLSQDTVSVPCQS
Sequence (P07339 169-412 limits assumed): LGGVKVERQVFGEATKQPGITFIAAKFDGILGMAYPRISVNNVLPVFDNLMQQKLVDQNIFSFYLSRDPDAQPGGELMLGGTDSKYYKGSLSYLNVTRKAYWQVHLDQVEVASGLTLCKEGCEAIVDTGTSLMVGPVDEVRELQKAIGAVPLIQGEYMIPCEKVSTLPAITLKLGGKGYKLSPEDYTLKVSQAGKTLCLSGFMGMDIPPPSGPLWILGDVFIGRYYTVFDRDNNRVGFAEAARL
Reported Property: pKd
Reminder that pKd means the negative base-10 logarithm of the concentration expressed in mol/L.

Enquiry: What reported pKd corresponds to CC1(C)SCN(C(=O)[C@@H](O)[C@H](Cc2ccccc2)NC(=O)COc2ccccc2)C1C(=O)N[C@H]1c2ccccc2C[C@H]1O (stereo partly specified) on Cathepsin D (Homo sapiens)?
Return: 6.85
